# method.summary: Metabolic stability in human liver microsomes with NADPH
# Assay type: in vitro ADME
# condition.context: pH 7.4, 1 μM compound, read-out: percent remaining
readout.label: remaining at 1 h, 1 μM (%)
Provide the reading as a plain figure in %.

Please give the measured remaining at 1 h, 1 μM for this molecule: COc1cc(-c2nc(-c3cccs3)c(-c3ccccc3)[nH]2)cc(OC)c1O [DPTIP] 100

----------
# method.summary: In vivo pharmacokinetics, plasma and brain, 10 mg/kg IP
# condition.context: male, CD1, mouse, brain, mice
readout.label: Tmax (min)
Report as a plain number; the unit min is understood.

Any idea what Tmax was measured for COc1cc(-c2nc(-c3cccs3)c(-c3ccccc3)[nH]2)cc(OC)c1O ? 30
